# measurement_notes: clinical
# recorded_conditions: human, in vivo, iv, CL
We begin with a simple list: items and their reported clearance.
State the value, then name its unit.

{"molecule": "NNc1nncc2ccccc12 [HYDRALAZINE]", "clearance": "85 mL/min/kg"}
{"molecule": "COc1ccccc1N1CCN(CCCNc2cc(=O)n(C)c(=O)n2C)CC1", "clearance": "3.1 mL/min/kg"}
{"molecule": "CNCCC=C1c2ccccc2CCc2ccccc21 [NORTRIPTYLINE]", "clearance": "10 mL/min/kg"}

Now, please, on to the next molecule.
Consider the molecule shown here: CCN(CC)CCCC(C)Nc1c2ccc(Cl)cc2nc2ccc(OC)cc12 (centres undefined) [QUINACRINE] What is its recorded clearance? 5.1 mL/min/kg
